- assay-details: Plasma levels of isoxicam and bioavailability parameters after a single oral dose to beagle dogs
- Assay type: in vivo
- details: dog, in vivo, po, 100 mg, dog 1942, oral 100 mg (free acid equivalents); read-out: Cmax
value-kind: Cmax
Please answer in the form of a number followed by its unit of measurement.

get_value(item= Cc1cc(NC(=O)C2=C(O)c3ccccc3S(=O)(=O)N2C)no1 [arginine isoxicamate, L-arginine isoxicamate] , readout=Cmax) returns 58.6 µg/mL

* * *

- assay-details: Plasma levels of isoxicam and bioavailability parameters after a single oral dose to beagle dogs
- Format: in vivo
- details: dog, in vivo, po, 100 mg, dog 1930, oral 100 mg (free acid equivalents); read-out: Cmax
- Description: The range for the individual animals was 51.4 to 63.0 µg/ml with three animals having a peak time of two hours and the final animal at eight hours. These plasma levels were considerably higher when compared to micronized isoxicam. […] Areas under the plasma concentrations versus time curve (AUC^0-∞) were calculated using the trapezoidal rule and extrapolated to infinity with the appropriate elimination rate constants.
value-kind: Cmax (µg/mL)
Reply with just the number (in µg/mL).

Cc1cc(NC(=O)C2=C(O)c3ccccc3S(=O)(=O)N2C)no1 [arginine isoxicamate, L-arginine isoxicamate] has a reported Cmax of 51.4
